assay: antimalarial activity against Dd2 strain (AID 2302);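 further: 0% = DMSO untreated growth and 100% = chloroquine plus artemisinin killed control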; conditions: P. falciparum Dd2 in RBCs, LDH growth readout, 72 h; at 2 µM; stronger effect = higher value
Documented growth inhibition across a set of molecules
parameter measured: growth inhibition (%)

- Oc1ccc(CN2CCN(CCOC(c3ccc(F)cc3)c3ccc(F)cc3)CC2)cc1Cl: 87
- O=C(/C=C/c1ccc(Cl)c(Cl)c1)N1CCC(CN2CCC(c3c[nH]c4cc(C(F)(F)F)ccc34)CC2)CC1: 38
- CCCCCCCN1[C@@H]2CC[C@H]1CC(CCOc1ccnc3ccc(OC)cc13)C2 (some centres undefined): 88
- CC[C@H]1CN2CC[C@@H]1C[C@H]2[C@H](O)c1cc(N2CCC(O)(c3ccc(Cl)cc3)CC2)nc2ccc(OC)cc12: 98
- CC(=O)Nc1ccc(CN2CCC(N(C)c3ccc(NC(=O)c4cccc(C)c4)cc3)CC2)cc1: 50
- O=C(NC1CCN(CC2(c3ccc(Cl)cc3)CCC2)CC1)c1ccn[nH]1: 43
- CC(Cc1ccc(OCCOc2ccccc2)cc1)NCC(O)c1cccc(C(F)(F)F)c1 (centres undefined): 76
- O=C(NC1CCC(CN2CCC(c3c[nH]c4ccccc34)CC2)CC1)c1cc(-c2ccc(F)cc2F)ccc1O (centres undefined): 101
- CC[C@H]1CN2CC[C@H]1C[C@H]2[C@H](O)c1cc(-c2cccc(Cl)c2)nc2ccc(OC)cc12: 99
- CN(Cc1ccccc1)C1CCN(CCc2c[nH]c3ccc(F)cc23)CC1: 91
- COc1ccc(CN2CCN(CCOC(c3ccccc3)c3ccc(Cl)cc3)CC2)c(O)c1 (centres undefined): 98
- CC[C@H]1CN2CC[C@H]1C[C@H]2[C@H](O)c1cc(-c2ccccc2C(F)(F)F)nc2ccc(OC)cc12: 99
- CC[C@H]1CN2CC[C@H]1C[C@@H]2[C@@H](O)c1ccnc2ccccc12: 20
- COC(C(=O)OCCC1CCCN1C)(c1ccccc1)c1ccccc1 (centres undefined): 9
- CC[C@H]1CN2CC[C@@H]1C[C@H]2[C@H](O)c1cc(N2CCOCC2)nc2ccc(OC)cc12: 99
- Oc1cccc(C2CCCN(Cc3cccc4cc[nH]c34)C2)c1 (centres undefined): 82
- N#Cc1ccc(N(CCCO)Cc2ccccc2C(F)(F)F)cc1C(F)(F)F: 23
- COc1cccc(C2(C)CCN(CCCCNC(=O)c3ccc(NC(=O)c4ccc(Cl)cc4)cc3)CC2)c1: 72
- CC[C@H]1CN2CC[C@H]1C[C@@H]2[C@H](O)c1ccnc2ccc(O)cc12: -4
